# Lookup of reported IC50 at 24 h keyed by entry
# protocol details: Cytotoxicity against rat PC-12 cells measured after 24 hrs by MTT assay
# Type: toxicity, cell-based

structure | IC50 at 24 h
CCCCCCCCCCCCC/C=C/[C@@H](O)[C@H](CO[C@@H]1O[C@H](CO)[C@@H](O[C@@H]2O[C@H](CO)[C@H](O)[C@H](O[C@]3(C(=O)O)C[C@H](O)[C@@H](NC(=O)c4cc(F)cc(F)c4)[C@H]([C@H](O)[C@H](O)CO)O3)[C@H]2O)[C@H](O)[C@H]1O)NC(=O)CCCCCCCCCCCCCCCCC | > 200 µM
CCCCCCCCCCCCC/C=C/[C@@H](O)[C@H](CO[C@@H]1O[C@H](CO)[C@@H](O[C@@H]2O[C@H](CO)[C@H](O)[C@H](O[C@]3(C(=O)O)C[C@H](O)[C@@H](NC(=O)c4cccc(F)c4)[C@H]([C@H](O)[C@H](O)CO)O3)[C@H]2O)[C@H](O)[C@H]1O)NC(=O)CCCCCCCCCCCCCCCCC | > 200 µM

Consider the record given below.
Provide measured IC50 at 24 h value, entry: "CCCCCCCCCCCCC/C=C/[C@@H](O)[C@H](CO[C@@H]1O[C@H](CO)[C@@H](O[C@@H]2O[C@H](CO)[C@H](O)[C@H](O[C@]3(C(=O)O)C[C@H](O)[C@@H](NC(=O)c4ccc(I)cc4)[C@H]([C@H](O)[C@H](O)CO)O3)[C@H]2O)[C@H](O)[C@H]1O)NC(=O)CCCCCCCCCCCCCCCCC" > 200 µM
